# credit: paper PMC8989888

# measuredTarget: UniProtKB P0DTD1
# Assay type: biochemical
# Design: unit not given here
# setupConditions: Conc 50 µM; average response of dose-response curve
Classification field: enter 1 for Avg values not below 80, 0 for values below it.

Query string: Would you say CN1C(=O)CCc2cc(C(=O)CCl)ccc21 [Z2491497303] shows Avg at minimum 80?
Result string: 0

Query string: Would you say Nc1nccnc1S [Z1868316802] shows Avg at minimum 80?
Result string: 1

Query string: In plain terms: is recorded Avg at least 80 for O=C(CCl)N1CCN(c2ccccc2[N+](=O)[O-])CC1 [Z1562119284] ?
Result string: 0

Query string: Reported Avg at or above 80? OCCc1cnc(S)nc1 [Z2064274637]
Result string: 1

Query string: Please check the record Nc1cccnc1S [Z1741977862] and state if its Avg is at or above 80.
Result string: 1

Query string: Check the entry O=C(CCl)N1CCN(Cc2cccs2)CC1 [Z166605372] : does Avg equal or exceed 80?
Result string: 0

---

# System: SARS-CoV-2
# assay: microbe, parasite or virus in culture
# Type: cell-based
# setupConditions: Severe acute respiratory syndrome coronavirus 2, Vero C1008, 72 h, read-out: EC50, inhibition of SARS-CoV-2 viral replication
observable: EC50 (nM)
Supply the numeric figure in nM, leaving out any unit text.

Query string: Request the reported EC50 associated with CCOC(=O)C=CC(CC1CCNC1=O)NC(=O)C(CC(C)C)NC(=O)C(NC(=O)OCc1ccccc1)C(C)OC(C)(C)C (stereo not drawn) [compound 4]
Result string: 800

Query string: # input compound: O=c1c2ccccc2[se]n1-c1ccccc1 [ebselen, reference compound] ; wanted: its EC50
Result string: 800

Query string: Reported EC50 for CC(C)CC(NC(=O)OCc1ccccc1)C(=O)NC(CC1CCNC1=O)C(O)S(=O)(=O)O (stereo not drawn) [GC376, reference compound] : what is it?
Result string: 6000

---

For each record, write down the corresponding LogIC50.
# measuredTarget: SARS-CoV-2 3CL protease (Severe acute respiratory syndrome coronavirus 2, UniProt P0DTD1)
# Type: biochemical
# setupConditions: log of IC50 in µM, Figure S1 and S2
Enter the number alone.

Query string: Could you share which LogIC50 value was measured for O=C(CCl)N1CCN(c2ccccc2[N+](=O)[O-])CC1 ?
Result string: 1.6496

Query string: // lookup LogIC50 for Nc1nccnc1S
Result string: 1.368

Query string: May I ask what LogIC50 has been recorded for CN1Cc2cc(C(=O)CCl)ccc2NC1=O ?
Result string: 1.383

Query string: // query LogIC50 value for entry CC1(C)C(=O)Nc2ccc(C(=O)CCl)cc21
Result string: 1.456

Query string: For the molecule shown here, OCCc1cnc(S)nc1 , give the reported LogIC50.
Result string: 1.369

Query string: What does the record list as LogIC50 for N#C/C=C/S(=O)(=O)c1ccc(Cl)cc1 ?
Result string: 1.251

Query string: Quick check: LogIC50 of O=C(c1ccc(S)nc1)N1CCCC1 ?
Result string: 1.378

Query string: Form field: reported LogIC50 of O=C(NCCc1ccc(F)cc1)n1ccnc1
Result string: 1.441

Query string: Item O=C(CCl)c1ccc(N2CCCC2=O)cc1 has what recorded LogIC50?
Result string: 1.147

Query string: Request the reported LogIC50 associated with O=C(CCl)c1ccc2c(c1)CCN(C(=O)C(F)(F)F)C2
Result string: 1.159

Query string: Look up LogIC50 for this molecule: O=C(CCl)N1CCOC(c2ccc(F)cc2)C1 (centres unmarked)
Result string: 1.2639
